Source of measurements: patent US20250228865A1

test system: recombinant human CFTR carrying the premature stop codon (PTC) mutation G542X; assay: CFTR-PTC mutant translation readthrough, Nanoluc tagged CFTR luminescence (G542X cell line); format: cell-based; settings: fold over 10 μM G-418; in combination with G418; G542X cell line
Excerpt: […]

compound: Cc1cccc(C(F)(F)F)c1COc1ccc(-n2cc(CO)nn2)nc1
CFTR G542X ACTIVITY Fold 10 μM G-418: A′ (A′ = ≥10X)
--
compound: NCC1CN(c2ccc(OCc3c(Cl)cccc3Cl)cc2)C(=O)O1 (stereo not shown)
CFTR G542X ACTIVITY Fold 10 μM G-418: B′ (B′ = ≥5X to <10X)
--
compound: CC(C)C1NC(=O)N(c2ncc(OCc3c(Cl)cccc3Cl)cn2)C1=O (stereo not shown)
CFTR G542X ACTIVITY Fold 10 μM G-418: A′ (A′ = ≥10X)
--
compound: OCc1cc(-c2ccc(OCc3c(Cl)cccc3Cl)cc2)no1
CFTR G542X ACTIVITY Fold 10 μM G-418: A′ (A′ = ≥10X)
--
compound: Cc1cccc(C(F)(F)F)c1COc1cnc(N2C(=O)CN(C)C2=O)nc1
CFTR G542X ACTIVITY Fold 10 μM G-418: B′ (B′ = ≥5X to <10X)
--
compound: OCc1cc(-c2ncc(OCc3c(Cl)cccc3Cl)cn2)no1
CFTR G542X ACTIVITY Fold 10 μM G-418: A′ (A′ = ≥10X)
--
compound: NC[C@@H]1CN(c2ncc(OCc3c(Cl)cccc3Cl)cn2)CCO1
CFTR G542X ACTIVITY Fold 10 μM G-418: B′ (B′ = ≥5X to <10X)
--
compound: Clc1cccc(Cl)c1COc1ccc(-n2ccnc2)cc1
CFTR G542X ACTIVITY Fold 10 μM G-418: B′ (B′ = ≥5X to <10X)
--
compound: FC(F)(F)c1cccc(Cl)c1COc1cnc(-n2cc(-c3ccccn3)nn2)nc1
CFTR G542X ACTIVITY Fold 10 μM G-418: A′ (A′ = ≥10X)
--
compound: OC1CN(c2ncc(OCc3c(Cl)cccc3Cl)cn2)C1
CFTR G542X ACTIVITY Fold 10 μM G-418: A′ (A′ = ≥10X)
--
compound: OCc1cnn(-c2ccc(OCc3c(Cl)cccc3Cl)cc2)c1
CFTR G542X ACTIVITY Fold 10 μM G-418: A′ (A′ = ≥10X)
--
compound: OCCn1cnc(Nc2ccc(OCc3c(Cl)cccc3Cl)cn2)n1
CFTR G542X ACTIVITY Fold 10 μM G-418: A′ (A′ = ≥10X)
--
compound: Cc1cccc(C(F)(F)F)c1COc1ccc(-n2cnc(CN)n2)cc1
CFTR G542X ACTIVITY Fold 10 μM G-418: A′ (A′ = ≥10X)
--
compound: Cc1cccc(C(F)(F)F)c1COc1cnc(N(C)CCCCO)nc1
CFTR G542X ACTIVITY Fold 10 μM G-418: A′ (A′ = ≥10X)
--
compound: CCc1cccc(C(F)(F)F)c1COc1ccc(N2CC(CO)NC2=O)cc1 (stereo not shown)
CFTR G542X ACTIVITY Fold 10 μM G-418: A′ (A′ = ≥10X)
--
compound: NC(=O)C1CN(c2ncc(OCc3c(Cl)cccc3Cl)cn2)C1
CFTR G542X ACTIVITY Fold 10 μM G-418: B′ (B′ = ≥5X to <10X)
--
compound: O=C1NC2(CCCC2)C(=O)N1c1ccc(OCc2c(Cl)cccc2C(F)(F)F)cc1
CFTR G542X ACTIVITY Fold 10 μM G-418: A′ (A′ = ≥10X)
--
compound: Cc1cccc(C(F)(F)F)c1COc1ccc(-n2cc(CO)nn2)cc1
CFTR G542X ACTIVITY Fold 10 μM G-418: A′ (A′ = ≥10X)
--
compound: Cc1cccc(C(C)(F)F)c1COc1ccc(-n2cc(CO)nn2)cc1
CFTR G542X ACTIVITY Fold 10 μM G-418: B′ (B′ = ≥5X to <10X)
--
compound: CN1C(=O)CN(c2ccc(OCc3c(Cl)cccc3C(F)(F)F)cn2)C1=O
CFTR G542X ACTIVITY Fold 10 μM G-418: A′ (A′ = ≥10X)
--
compound: Cc1cccc(C(F)(F)F)c1COc1ccc(-n2cnc(Cn3cnc(CO)c3)c2)nc1
CFTR G542X ACTIVITY Fold 10 μM G-418: A′ (A′ = ≥10X)
